Target: T1, hu-IL-2Rγc subunit (human), P31785
T1 chain: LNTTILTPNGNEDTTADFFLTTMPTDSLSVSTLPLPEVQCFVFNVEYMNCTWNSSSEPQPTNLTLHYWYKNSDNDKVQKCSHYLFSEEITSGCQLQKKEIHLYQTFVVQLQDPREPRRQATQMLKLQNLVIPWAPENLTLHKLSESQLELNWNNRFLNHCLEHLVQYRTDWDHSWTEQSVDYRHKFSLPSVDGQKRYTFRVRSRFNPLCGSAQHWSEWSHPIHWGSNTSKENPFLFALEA
measured.property: IC50

The recorded IC50 for KVCEMWGGVLLCWN (modifications not checked) [SEQ ID NO 936] is < 10 µM
